The measurements presented in this section are drawn from ChEMBL document CHEMBL1201862.

- targetOrSystem: Cysteine protease ATG4B (Homo sapiens, UniProt Q9Y4P1);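 note: Fluorescence-based dose-response confirmation assay measuring inhibition of ATG4B activity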
- Sequence (Q9Y4P1 whole entry): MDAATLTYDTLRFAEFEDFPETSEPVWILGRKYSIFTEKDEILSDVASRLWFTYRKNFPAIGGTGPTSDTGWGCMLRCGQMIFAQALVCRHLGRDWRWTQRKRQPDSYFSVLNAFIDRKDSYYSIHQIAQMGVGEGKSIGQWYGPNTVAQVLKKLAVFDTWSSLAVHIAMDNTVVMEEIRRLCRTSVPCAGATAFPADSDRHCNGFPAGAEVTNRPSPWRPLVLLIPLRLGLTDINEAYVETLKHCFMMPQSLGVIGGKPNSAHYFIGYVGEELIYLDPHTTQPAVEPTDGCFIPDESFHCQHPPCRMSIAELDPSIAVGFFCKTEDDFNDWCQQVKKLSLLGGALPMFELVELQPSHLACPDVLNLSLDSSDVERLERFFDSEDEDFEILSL
- Assay type: functional
Active and inactive are the calls of the source.
# IC50 listing for each entry below
quantity: IC50

>>> datavalue("CC1CCCCC1NC(=O)COC(=O)c1c2c(nc3ccccc13)/C(=C/c1ccco1)CC2 (stereo unspecified)")
"14.4 µM (active)"
>>> datavalue("Oc1ccc(N=Nc2nc(-c3ccccc3)c(-c3ccccc3)[nH]2)cc1")
"9.13 µM (active)"
>>> datavalue("O=C1Nc2cc(Cl)c(Cl)cc2N(O)N1c1cc(Cl)cc(Cl)c1")
"14.5 µM (active)"
>>> datavalue("COc1cccc(-c2nc(SCC(=O)Nc3nc(-c4ccccc4)c(C)s3)[nH]c(=O)c2C#N)c1")
"14.9 µM (active)"
>>> datavalue("O=C(COc1ccccc1-c1ccccc1)NCc1cccc(Cl)c1")
"11.4 µM (active)"
>>> datavalue("CCOc1ccc(NCc2ccccc2OCc2cccc(F)c2)cc1")
"8.88 µM (active)"

###

Observed AC50 for Cytochrome P450 1A2 (Homo sapiens), reported per entry below.
quantity: AC50

>>> datavalue("COc1ccc(-c2nc3cnc(N4CCNCC4)nc3n(C)c2=O)cc1")
"12.6 µM (inconclusive)"
>>> datavalue("CCNC(=O)COC(=O)c1cc(O)nc2ccccc12")
"15.8 µM (inconclusive)"
>>> datavalue("CCN(CC)c1ccc(N2C(=O)/C(=C/c3cccnc3)SC2=S)cc1")
"6.31 µM (inconclusive)"

###

- targetOrSystem: FAD-linked sulfhydryl oxidase ALR (Homo sapiens, UniProt P55789)
- Sequence (P55789 whole entry): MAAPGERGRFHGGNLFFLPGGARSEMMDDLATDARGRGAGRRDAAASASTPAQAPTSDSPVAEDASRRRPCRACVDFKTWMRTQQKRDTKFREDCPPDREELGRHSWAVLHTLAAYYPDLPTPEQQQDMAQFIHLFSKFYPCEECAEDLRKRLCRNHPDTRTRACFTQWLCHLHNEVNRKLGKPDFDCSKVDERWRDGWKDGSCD
- assayMethodText: ALR-catalysed DTT oxidation blockers – biochemical, H2O2 detection, luminescence, cherry-pick, dose response (AID 493248)
Active and inactive are the calls of the source.
# AC50 listing for each entry below
quantity: AC50

>>> datavalue("O=C1NC(=O)N(c2ccccc2)C(=O)/C1=C/C=C/c1ccco1")
"449 nM (active)"
>>> datavalue("CN(C)NC(=O)c1ccsc1NC(=O)c1ccc(S(=O)(=O)N2CCCC2)cc1")
"835 nM (active)"
>>> datavalue("O=C(NN=Cc1ccc(O)cc1)c1cc[n+](Cc2ccccc2)cc1")
"2050 nM (active)"
>>> datavalue("CC(=O)Nc1ccc(S(=O)(=O)NC(C)C(=O)NCCc2ccc(F)cc2)cc1 (configuration not stated)")
"31 nM (active)"
>>> datavalue("O=C1NC(=O)/C(=C\\c2ccc(O)cc2O)S1")
"1780 nM (active)"
>>> datavalue("Cc1ccc(NNC(=O)c2ccno2)cc1C")
"439 nM (active)"
>>> datavalue("O=C(CN1CCN(c2ccccc2O)CC1)Nc1cccnc1Cl")
"2170 nM (active)"
